The origin of these recorded values is paper PMC13138739.

target: T1, OspA ST4 (B. bavariensis PBi allele) on the B. burgdorferi HB19-R1 reporter strain (Borrelia bavariensis PBi (OspA ST4), UniProt Q6LBF1, strain); assay: flow cytometry on cells; live B. burgdorferi HB19-R1 reporter strains expressing OspA ST1-7, 10 µg/ml mAb, Alexa 647-labeled goat anti-human IgG; conditions: one partner purified
T1 construct: OspA of B. bavariensis PBi (ST4); source: B. burgdorferi HB19-R1 (lacks ospA), reporter plasmid, native ospAB promoter of B31, on live cells
readout_name: binding result

227-2, recombinant human monoclonal IgG1 (antibody, V domains shown, source: Expi293 cells, transiently transfected with VH and VL plasmids, purified (Protein A)) VH: EVQVVQSGAEVKKPGESLKISCKGSGYSFTSYWIGWVRQMPGKGLEWMGIIYPGDSDTRYSPSFQGQVTISADKSISTAYLQWSSLKASDTAMYYCVRSISRSGPGYILSWFFDYWGQGSLVTVSS VL: AIQLTQSPSSLSASVGDRVTITCRASQGISNALAWYQQKPGKAPKLLIYDASSLERGVPSRFSGSGFGTDFTLTISSLQPEDFAIYYCQQFNGFPNTFGQGTRVEIK	binds
221-11, recombinant human monoclonal IgG1 (antibody, V domains shown, source: Expi293 cells, transiently transfected with VH and VL plasmids, purified (Protein A)) VH: EVQLVQSGAEVKKPGESLKISCQSSGYRFTIYWIGWVRQMPGKGLEWMGIIWPGDSDTRYSPSFQGQVTISADKSISTAYLQWSSLKASDTAMYYCVRGIGRYSNWFLDYWGQGTLVTVSS VL: AIQLTQSPSSLSASVGDRVTITCRASQGFSSALAWYQQKPGKAPKLLIYDASSLESGVPSRFSGSGSGTDFTLTISSLQPEDFATYYCQQFNSYPLTFGGGTKVEIK	binds
227-1, recombinant human monoclonal IgG1 (antibody, V domains shown, source: Expi293 cells, transiently transfected with VH and VL plasmids, purified (Protein A)) VH: EVQLVQSGAEVKMPGESLKISCEVSGYSFTSYWIGWVRQMPGKGLEWMGIIYPGDSDTRYSPSFQGQVTISADKSISTAYLQWSSLKASDTAMYYCTRSISRSGPGFSLSWFFDYWGQGTLVTVSS VL: AIQLTQSPSSLSASVGDRVTITCRASQGISNALAWYQQKPGKAPKLLIYDASSLERGVPSRFSGSGFGTDFTLTISSLQPEDFAIYYCQQFNGFPNTFGQGTRVEIK	binds
